- Tested On: PLD2 (Homo sapiens (Human))
- Sequence (O14939 whole entry): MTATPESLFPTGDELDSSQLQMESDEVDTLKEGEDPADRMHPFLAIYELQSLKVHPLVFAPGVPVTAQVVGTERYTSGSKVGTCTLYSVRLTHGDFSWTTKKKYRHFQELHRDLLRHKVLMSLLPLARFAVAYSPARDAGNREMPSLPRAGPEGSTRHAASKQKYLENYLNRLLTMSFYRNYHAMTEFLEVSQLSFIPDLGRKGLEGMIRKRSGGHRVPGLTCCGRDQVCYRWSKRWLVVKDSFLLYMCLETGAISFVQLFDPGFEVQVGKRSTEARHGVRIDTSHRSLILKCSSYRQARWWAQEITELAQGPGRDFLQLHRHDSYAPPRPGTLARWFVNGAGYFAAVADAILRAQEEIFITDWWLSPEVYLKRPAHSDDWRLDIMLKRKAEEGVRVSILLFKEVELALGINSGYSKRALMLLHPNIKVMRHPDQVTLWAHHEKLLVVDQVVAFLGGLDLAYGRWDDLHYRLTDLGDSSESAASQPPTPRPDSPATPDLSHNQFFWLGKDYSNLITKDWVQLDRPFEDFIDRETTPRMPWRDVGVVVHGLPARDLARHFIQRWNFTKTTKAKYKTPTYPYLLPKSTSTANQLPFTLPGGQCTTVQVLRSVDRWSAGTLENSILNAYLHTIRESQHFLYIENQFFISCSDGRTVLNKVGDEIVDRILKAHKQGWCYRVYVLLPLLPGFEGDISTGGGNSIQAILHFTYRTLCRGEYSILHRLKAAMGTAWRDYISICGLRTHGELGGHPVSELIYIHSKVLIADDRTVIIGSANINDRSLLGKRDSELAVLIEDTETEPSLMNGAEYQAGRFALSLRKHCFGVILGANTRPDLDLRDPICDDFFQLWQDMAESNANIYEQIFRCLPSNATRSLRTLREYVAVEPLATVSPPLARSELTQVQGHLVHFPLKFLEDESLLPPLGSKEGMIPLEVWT
- Experimental Protocol: Cellular CRCs: PLD2 response in HEK293gfpPLD2 (293-PLD2) cells
- Assay type: cell-based
- Details: cellular CRCs; selectivity for PLD2 (293-PLD2) over PLD1 (Calu-1)
Overview of recorded Fold Selective for various compounds
Endpoint Name: Fold Selective

[
  {
    "Compound": "O=C(NCCN1CCC2(CC1)C(=O)NC[C@H]2c1ccc(F)cc1)c1ccc2ccccc2c1.O=C(O)C(F)(F)F",
    "Test Result": "17-Fol PLD2 fold"
  },
  {
    "Compound": "O=C(NCCN1CCC2(CC1)C(=O)NC[C@@H]2c1ccc(F)cc1)C1C[C@H]1c1ccccc1.O=C(O)C(F)(F)F (stereo partly shown)",
    "Test Result": "8-fold PLD2"
  },
  {
    "Compound": "O=C(C#Cc1ccccc1)NCCN1CCC2(CC1)C(=O)NC[C@@H]2c1ccc(F)cc1.O=C(O)C(F)(F)F",
    "Test Result": "17-fold PLD2"
  },
  {
    "Compound": "O=C(NCCN1CCC2(CC1)C(=O)NC[C@@H]2c1ccc(F)cc1)c1cc2ccccc2[nH]1.O=C(O)C(F)(F)F",
    "Test Result": "8 fold PLD2"
  }
]

Data provenance is patent US9127005B2.
